# System tested: MYT1 protein (Homo sapiens (Human), UniProt Q99640)
# Sequence (Q99640 whole entry): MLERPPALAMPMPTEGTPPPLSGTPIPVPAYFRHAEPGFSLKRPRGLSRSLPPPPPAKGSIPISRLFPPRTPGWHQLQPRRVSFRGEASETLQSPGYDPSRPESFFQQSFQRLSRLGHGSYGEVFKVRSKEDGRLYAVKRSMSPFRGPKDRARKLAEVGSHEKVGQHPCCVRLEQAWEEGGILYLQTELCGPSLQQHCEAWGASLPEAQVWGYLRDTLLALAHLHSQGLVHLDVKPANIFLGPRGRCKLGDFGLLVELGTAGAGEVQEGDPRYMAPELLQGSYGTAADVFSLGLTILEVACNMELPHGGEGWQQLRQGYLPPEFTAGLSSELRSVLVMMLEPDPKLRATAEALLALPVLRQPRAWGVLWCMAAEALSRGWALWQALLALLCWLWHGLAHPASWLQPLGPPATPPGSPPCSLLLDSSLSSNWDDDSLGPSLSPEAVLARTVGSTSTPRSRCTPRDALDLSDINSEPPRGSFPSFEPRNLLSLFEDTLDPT
# Assay name: Test for binding to ATP binding site of MYT1 (Kinase Tracer 178 / Eu-Anti-GST antibody TR-FRET)
# Assay conditions: ATP binding site of MYT1, 30 minutes at room temperature
Property: pIC50
Bear in mind: pIC50 is minus log10 of a mol/L concentration; give just that figure.

Prompt: Param item = Cc1cc2c(-c3cc(F)c(F)c4[nH]ncc34)c(N)c(=O)[nH]c2c2cccnc12 [Compound C190] ; retrieve measured pIC50.
Completion: 8.60

Prompt: Param item = CC(=O)Nc1cc2c(-c3ccc(F)c4[nH]ncc34)c(N)c(=O)[nH]c2c2ncccc12 [Compound D19] ; retrieve measured pIC50.
Completion: 7.66

Prompt: Param item = Nc1c(-c2ccc(F)c3[nH]ncc23)c2cc(Br)c3c(Cl)cccc3c2[nH]c1=O [Compound B16] ; retrieve measured pIC50.
Completion: 7.34

Prompt: Param item = Cc1cc2c(-c3ccc(F)c4[nH]ncc34)c(N)c(=O)[nH]c2c2nccnc12 [Compound G3] ; retrieve measured pIC50.
Completion: 8.10

Prompt: Param item = Nc1c(-c2ccc(F)c3[nH]ncc23)c2cc(OCCC(F)F)c3ncccc3c2[nH]c1=O [Compound C32] ; retrieve measured pIC50.
Completion: 8.46

Prompt: Param item = Nc1c(-c2ccc(F)c3[nH]ncc23)c2cc(C3CCOCC3)c3ncccc3c2[nH]c1=O [Compound C98] ; retrieve measured pIC50.
Completion: 8.55

###

# System tested: MYT1 protein (Homo sapiens (Human), UniProt Q99640)
# Assay name: Test for binding to ATP binding site of MYT1 (Kinase Tracer 178 / Eu-Anti-GST antibody TR-FRET)
# Assay conditions: ATP binding site of MYT1, 30 minutes at room temperature
Mark Fulfilled only when IC50 stays strictly below 3 nM. Values equal to the cut-off are Not fulfilled.

Prompt: Record Nc1c(-c2ccc(F)c3[nH]ncc23)c2cc(OCC3(F)COC3)c3ncccc3c2[nH]c1=O : is its IC50 strictly below 3 nM?
Completion: Not fulfilled

Prompt: Record Nc1c(-c2ccc(Cl)c3[nH]ncc23)c2cc(OCC3CC3)c(F)cc2[nH]c1=O : is its IC50 strictly below 3 nM?
Completion: Not fulfilled

Prompt: Record Nc1c(-c2ccc(F)c3[nH]ncc23)c2cc(N3C4COCC3C4)c3ncccc3c2[nH]c1=O : is its IC50 strictly below 3 nM?
Completion: Not fulfilled

Prompt: Record Nc1c(-c2ccc(F)c3[nH]ncc23)c2cc(O[C@@H]3CCOC3)c3ncccc3c2[nH]c1=O : is its IC50 strictly below 3 nM?
Completion: Fulfilled

Prompt: Record Nc1c(-c2cc(F)c(F)c3[nH]ncc23)c2cc(OCC(F)F)c3ncccc3c2[nH]c1=O : is its IC50 strictly below 3 nM?
Completion: Fulfilled

Prompt: Record Nc1c(-c2ccc(Cl)c3[nH]ncc23)c2cc(Br)c3ccccc3c2[nH]c1=O : is its IC50 strictly below 3 nM?
Completion: Not fulfilled

Prompt: Record Cc1nc2c(C)cc3c(-c4ccc(F)c5[nH]ncc45)c(N)c(=O)[nH]c3c2s1 : is its IC50 strictly below 3 nM?
Completion: Fulfilled

Prompt: Record Nc1c(-c2cc(F)c(F)c3[nH]ncc23)c2cc(C3CCCC3)c3ncccc3c2[nH]c1=O : is its IC50 strictly below 3 nM?
Completion: Not fulfilled

Prompt: Record Nc1c(-c2ccc(F)c3[nH]ncc23)c2cc(C(F)(F)F)c3ncccc3c2[nH]c1=O : is its IC50 strictly below 3 nM?
Completion: Not fulfilled

Prompt: Record Nc1c(-c2ccc(F)c3[nH]ncc23)c2cc(CCC(F)(F)F)c3ncccc3c2[nH]c1=O : is its IC50 strictly below 3 nM?
Completion: Not fulfilled

Prompt: Record Nc1c(-c2ccc(F)c3[nH]ncc23)c2cc(Br)c3scnc3c2[nH]c1=O : is its IC50 strictly below 3 nM?
Completion: Not fulfilled

Prompt: Record Nc1c(-c2ccc(F)c3[nH]ncc23)c2cc(C3CCCC3)c3ncccc3c2[nH]c1=O : is its IC50 strictly below 3 nM?
Completion: Not fulfilled

Prompt: Record Nc1c(-c2ccc(F)c3[nH]ncc23)c2cc(C3CC3(F)F)c3ncccc3c2[nH]c1=O (stereo not shown) : is its IC50 strictly below 3 nM?
Completion: Not fulfilled

Prompt: Record N#Cc1cc2c(-c3ccc(Cl)c4[nH]ncc34)c(N)c(=O)[nH]c2c2cccnc12 : is its IC50 strictly below 3 nM?
Completion: Not fulfilled

Prompt: Record Cc1cc2c(-c3ccc(Cl)c4[nH]ncc34)c(N)c(=O)[nH]c2c2cccnc12 : is its IC50 strictly below 3 nM?
Completion: Not fulfilled

Prompt: Record Cc1cc2c(-c3c(F)cc(F)c4[nH]ncc34)c(N)c(=O)[nH]c2c2cccnc12 : is its IC50 strictly below 3 nM?
Completion: Fulfilled
